experiment-summary: solubility limit of XN in aqueous solution (water)
Format: physicochemical
test-parameters: water temperature of 8° C.; read-out: solubility limit of XN in typical aqueous solutions
measured-metric: solubility

[in] For COc1cc(O)c(CC=C(C)C)c(O)c1C(=O)/C=C/c1ccc(O)cc1 , what is its reported solubility?
[out] 1.1 µg/mL

###

experiment-summary: solubility limit of XN in aqueous solution (water)
Assay type: physicochemical
test-parameters: water temperature of 23° C.; read-out: solubility limit of XN in typical aqueous solutions
measured-metric: solubility (µg/mL)
Give bare numbers, in µg/mL.

[in] For COc1cc(O)c(CC=C(C)C)c(O)c1C(=O)/C=C/c1ccc(O)cc1 , what is its reported solubility?
[out] 1.3
